Subject Of Test: T1, human Ang-2 (human, UniProt O15123 19-496, limits assumed)
T1 construct: Sources differ by assay: R&D Systems 623-AN (mixture of 2 truncated versions) for initial screening; also called hAng-2; huAng-2
T1 sequence (looked up): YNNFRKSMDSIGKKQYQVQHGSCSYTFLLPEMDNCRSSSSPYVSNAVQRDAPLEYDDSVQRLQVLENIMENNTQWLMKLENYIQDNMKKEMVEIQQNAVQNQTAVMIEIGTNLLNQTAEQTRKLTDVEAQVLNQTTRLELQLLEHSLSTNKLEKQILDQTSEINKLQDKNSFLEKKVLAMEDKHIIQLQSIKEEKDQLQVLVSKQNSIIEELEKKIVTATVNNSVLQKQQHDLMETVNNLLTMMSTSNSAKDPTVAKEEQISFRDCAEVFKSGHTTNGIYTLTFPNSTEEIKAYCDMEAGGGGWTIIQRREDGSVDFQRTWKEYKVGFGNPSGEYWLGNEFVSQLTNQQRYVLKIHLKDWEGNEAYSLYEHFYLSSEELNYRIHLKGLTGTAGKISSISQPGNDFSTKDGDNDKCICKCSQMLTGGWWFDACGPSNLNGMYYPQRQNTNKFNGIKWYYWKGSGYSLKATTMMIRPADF
Test Method Notes: neutralization ELISA vs Tie-2-Fc
Where no end group is shown, it is not given here.
Give IC50 for every item shown.
# unit: nM | format: bare number

For reference, reported IC50 for C(methoxy‑poly(ethylene glycol)‑maleimide 5 kDa)GGGGGAQTNFMPMDDLEQRLYEQFILQQGLE [mPEG5K-(L1-7 Peptide)] stands at 11.7

Entry C(1,11‑bis‑maleimidotetraethyleneglycol)GGGGGAQTNFMPMDDLEQRLYEQFILQQGLE (also: two peptides joined through Cys1 by 1,11-bis-maleimidotetraethyleneglycol, one on each end) [PEO4(L1-7 Peptide)2] , IC50 reported as 0.064

Value of measured IC50 for the entry CGGGGGAQTNFMPMDDLEQRLYEQFILQQGLE (Synthetic peptide with N-terminal Cys and 5Gly linker; also called L1-7(unPEGylated Peptide); L1-7 free peptide) [L1-7 Peptide] : 0.49

For record C(poly(ethylene glycol)‑bis‑maleimide 3.4 kDa)GGGGGAQTNFMPMDDLEQRLYEQFILQQGLE (also: two peptides joined through Cys1 by PEG-bis-maleimide 3.4 kDa, one on each end) [PEG3.4K(L1-7 Peptide)2] the listed IC50 is 0.058
